Source: patent EP0973516B1

Biological target: Benzodiazepine receptors (BDZ-Rs)
Test: Inhibition of 3H-flunitrazepam (3H-FNZ) binding to washed rat cerebral cortical membranes
Details: single representative displacement curve (Figures 1-5); [3H] flunitrazepam 0.5 nM; washed crude synaptosomal membranes from rat cerebral cortex; read-out: Ki
What pKi was measured for each of the following?
Answers are plain numbers, as −log10 of the molar value.

Some molecules with known pKi results, for comparison:
O=c1cc(-c2cccc(Br)c2)oc2ccccc12 [Compound A3, 3'-bromoflavone]; 6.37
O=c1cc(-c2ccccc2)oc2ccc([N+](=O)[O-])cc12 [Compound A1, 6-nitroflavone]; 6.50
O=c1cc(-c2cccc(Cl)c2)oc2ccccc12 [Compound A2, 3'-chloroflavone]; 6.18
O=c1cc(-c2cccc(Br)c2)oc2ccc([N+](=O)[O-])cc12 [Compound A5, 6-nitro-3'-bromoflavone]; 7.66

Query molecule follows.
Query O=c1cc(-c2cccc(Br)c2)oc2ccc(Br)cc12 [Compound A4, 6,3'-dibromoflavone] yields pKi of 7.64
